target: T1, HSP70 (human HSP70; the antigen of the binning, humanization and variant binding assays) (human, UniProt P0DMV8 1-641, limits assumed); assay: BLI, anti-human Fc capture, antigen dilution series, 1:1 fit
T1 construct: also called hu HSP70
T1 sequence (P0DMV8 whole entry, change not shown): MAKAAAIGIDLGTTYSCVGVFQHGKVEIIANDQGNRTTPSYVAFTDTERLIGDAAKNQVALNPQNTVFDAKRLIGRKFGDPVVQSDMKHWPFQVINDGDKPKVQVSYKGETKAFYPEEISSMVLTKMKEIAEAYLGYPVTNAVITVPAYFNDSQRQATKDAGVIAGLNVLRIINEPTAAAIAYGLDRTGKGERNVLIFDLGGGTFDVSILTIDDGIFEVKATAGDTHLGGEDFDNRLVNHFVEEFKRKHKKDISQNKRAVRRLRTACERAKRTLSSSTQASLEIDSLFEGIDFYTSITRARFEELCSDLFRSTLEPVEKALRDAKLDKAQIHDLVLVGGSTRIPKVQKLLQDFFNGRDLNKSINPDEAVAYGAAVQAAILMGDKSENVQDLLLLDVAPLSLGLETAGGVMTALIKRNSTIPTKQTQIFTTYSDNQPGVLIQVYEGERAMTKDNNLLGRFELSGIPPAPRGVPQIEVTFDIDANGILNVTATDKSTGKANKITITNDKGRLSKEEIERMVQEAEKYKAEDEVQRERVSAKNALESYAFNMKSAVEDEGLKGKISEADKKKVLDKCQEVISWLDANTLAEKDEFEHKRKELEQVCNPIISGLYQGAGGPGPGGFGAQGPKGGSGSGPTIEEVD
OBSERVED PROPERTY: koff (s⁻¹)

| BINDER | TEST VALUE |
| --- | --- |
| h77A-1.46 (antibody, V domains shown, captured by anti-human Fc) VH: QIQLVQSGVEVKKPGASVKVSCKASGYTFTNYGMNWVRQAPGQGLEWMGWINTYTGEPTYADDFKGRFTFTTDTSTSTAYMELRSLRSDDTAVYFCARYDHAMDYWGQGTLVTVSS VL: EIVLTQSPDSLAVSLGERATIKCKSSQSLLNSGTRKNYLAWYQKKAGQSPKLLIYWTSTRESGVPDRFSGSGSGTDFTLTIDSLQAEDVAVYYCKQSYTLYTFGGGTKVEIK | 0.000123 |
| h77A-1.94 (antibody, V domains shown, captured by anti-human Fc) VH: QIQLVQSGAEVKKPGASVKVSCKASGYTFTNYGMNWVRQAPGQGLEWMGWINTYTGEPTYTDDFKGRFTFTTDTSTSTAYMELRSLRSDDTAVYFCARYDHAMDYWGQGTLVTVSS VL: EIVLTQSPDSLAVSLGERATINCKSSQSLFNSGTRKNYLAWYQQKAGQSPKLIIYWTSTRESGVPDRFSASGSGTDFTLSIDRLQAEDVAVYYCKQSYTLYTFGGGTKVEIK | 0.000111 |
| h77A-1.61 (antibody, V domains shown, captured by anti-human Fc) VH: QIQLVQSGAEVKKPGASVKVSCKASGYTFTNYGMNWVRQAPGQGLEWMGWINTYTGEPTYADDFKGRFTFTTDTSTSTAYMELRSLRSDDTAVYFCARYDHAMDYWGQGSLVTVSS VL: EIVLTQSPDSLAVSLGERATINCKSSQSLLNSGTRKNYLAWYQKKSGQSPKLLIYWTSTRESGVPDRFSGSGSGTDFTLSIDSLQAEDVAVYYCKQSYTLYTFGGGTKVEIK | 0.000123 |
| h77A-1 (antibody, V domains shown, also called hVH-1 + hVL-1) VH: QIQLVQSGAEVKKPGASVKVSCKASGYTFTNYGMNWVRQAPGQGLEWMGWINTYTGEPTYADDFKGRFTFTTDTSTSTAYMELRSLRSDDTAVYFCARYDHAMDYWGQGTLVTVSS VL: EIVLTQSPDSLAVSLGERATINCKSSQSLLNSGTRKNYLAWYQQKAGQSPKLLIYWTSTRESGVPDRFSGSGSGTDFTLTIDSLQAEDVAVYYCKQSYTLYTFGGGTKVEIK | 0.000131 |
| h77A-1.74 (antibody, V domains shown, captured by anti-human Fc) VH: QIQLVQSGPEVKKPGASVKVSCKASGYTFTNYGMNWVRQAPGQGLEWMGWINTYTGEPTYADDFKGRFTFTTDTSTTTGYMELRSLRSDDTAVYFCARYDHAMDYWGQGTLVTVSS VL: EIVLTQSPDSLAVSLGERATIKCKSSQSLLNSGTRKNYLAWYQQKAGQSPKLLIYWTSTRESGVPDRFSGSGSGTDFTLTIDSLQAEDVAIYYCKQSYTLYTFGGGTKVEIK | 0.000125 |
